Each recorded value in this set is attributed to ChEMBL document CHEMBL1122046.

Exercise: state measured MIC for each of the molecules provided.
Tested on: Proteus mirabilis
run_description: Minimum inhibitory concentration against aerobic organism Proteus mirabilis strain 2830
Type: functional
condition_info: Proteus mirabilis; read-out: MIC
Kindly provide the numeric value in µg/mL only, without the unit symbol.

Query: Give Proteus mirabilis MIC for `Cn1nnnc1SCC1=C(C(=O)[O-])N2C(=O)[C@@H](Nc3cc[n+](Cc4ccc(C#N)cc4)cc3)[C@H]2SC1`
Response: 128

Query: Give Proteus mirabilis MIC for `CC[n+]1ccc(N[C@@H]2C(=O)N3C(C(=O)[O-])=C(CSc4nnnn4C)CS[C@H]23)cc1`
Response: 2

Query: Give Proteus mirabilis MIC for `CCOC(=O)C[n+]1ccc(N[C@@H]2C(=O)N3C(C(=O)[O-])=C(CSc4nnnn4C)CS[C@H]23)cc1`
Response: 128

Query: Give Proteus mirabilis MIC for `Cn1nnnc1SCC1=C(C(=O)[O-])N2C(=O)[C@@H](Nc3cc[n+](COCC(Cl)(Cl)Cl)cc3)[C@H]2SC1`
Response: 64

Query: Give Proteus mirabilis MIC for `Cn1nnnc1SCC1=C(C(=O)[O-])N2C(=O)[C@@H](Nc3cc[n+](CC(=O)[O-])cc3)[C@H]2SC1.[Na+]`
Response: 64

Query: Give Proteus mirabilis MIC for `O=C([O-])C1=C(CSc2cc[n+](Cc3ccccc3)cc2)CS[C@@H]2[C@H]([N-]c3cc[n+](Cc4ccccc4)cc3)C(=O)N12`
Response: 128

----------
System: Serratia marcescens
run_description: Inhibition zone diameter against aerobic organism Serratia marcescenes strain 2855
recorded_metric: zone diameter (mm)
Kindly provide the numeric value in mm only, without the unit symbol.

Query: Data request, read-out zone diameter, for CC(O)[C@H]1C(=O)N2C(C(=O)O)=C(SCCNC3=NCCC3)C[C@H]12 (stereo partly specified)
Response: 25.5

Query: Data request, read-out zone diameter, for CC(O)[C@H]1C(=O)N2C(C(=O)[O-])=C(SCCNc3cc[n+](C)cc3)C[C@H]12 (stereo partly specified)
Response: 26.5

Query: Data request, read-out zone diameter, for CC(O)[C@H]1C(=O)N2C(C(=O)[O-])=C(SCCNc3cc[n+](Cc4ccccc4)cc3)C[C@H]12 (stereo partly specified)
Response: 25

Query: Data request, read-out zone diameter, for C[C@@H](O)[C@H]1C(=O)N2C(C(=O)O)=C(SCCNC=N)C[C@H]12 [IMIPENEM ANHYDROUS]
Response: 24.5

Query: Data request, read-out zone diameter, for CC(=O)NCCSC1=C(C(=O)O)N2C(=O)[C@H](C(C)O)[C@H]2C1 (stereo partly specified)
Response: 28

Query: Data request, read-out zone diameter, for CC(O)[C@H]1C(=O)N2C(C(=O)[O-])=C(SCCNc3cccc[n+]3C)C[C@H]12 (stereo partly specified)
Response: 26

----------
Exercise: state measured MIC for each of the molecules provided.
Test system: Streptococcus pyogenes
run_description: Minimum inhibitory concentration against aerobic organism Streptococcus pyogenes strain 3124
Format: functional
condition_info: Streptococcus pyogenes; read-out: MIC
Kindly provide the numeric value in µg/mL only, without the unit symbol.

Query: Data request, read-out MIC, for `COC[n+]1ccc(N[C@@H]2C(=O)N3C(C(=O)[O-])=C(CSc4nnnn4C)CS[C@H]23)cc1`
Response: 0.125

Query: Data request, read-out MIC, for `CC(C)[n+]1ccc(N[C@@H]2C(=O)N3C(C(=O)[O-])=C(CSc4nnnn4C)CS[C@H]23)cc1`
Response: 1

Query: Data request, read-out MIC, for `Cc1c[n+](C)ccc1N[C@@H]1C(=O)N2C(C(=O)[O-])=C(CSc3nnnn3C)CS[C@H]12`
Response: 32
